Test system: NCI/ADR-RES
assayMethodText: NCI tumour cell line growth inhibition, 48 h
Active and inactive are the calls of the source. Cut-off read from the data, not from the text of the source: active = GI50 up to about 1.1 µM and inactive = higher.
observationType: GI50

Reference set (10 entries):
ONCCCn1cnc2c(NC3CC3)ncnc21 : > 100 µM (inactive)
Cc1ccc(C)c(N2C(=O)C(=O)c3c(C)ccc(C)c32)c1 : 23.6 µM (inactive)
CC(C)NC(=O)OCc1c(CO)c2c(n1C)-c1ccccc1CC2 : 24.5 µM (inactive)
CCOC(=O)c1cc(-n2nnc3ccccc32)cn1C : > 10 µM (inactive)
Cc1cc(C#N)c[n+](C)c1 : > 100 µM (inactive)
O=c1c(-c2ccccc2Cl)coc2cc(F)ccc12 : 19.5 µM (inactive)
COc1cc(/C=C/C2=NN(c3cccc(S(=O)(=O)O)c3)C3(C2)SCC(=O)N3c2nc3ccccc3s2)cc(OC)c1OC (stereo not drawn) : 42.7 µM (inactive)
CCOC(=O)C(NC(=O)CC)(Nc1ccc(S(=O)(=O)Nc2nc(C)cc(C)n2)cc1)C(F)(F)F (stereo not drawn) : > 100 µM (inactive)
COc1ccc(/N=N/C(=NNC(=O)c2ccc(C)cc2)c2ccc(N(C)C)cc2)cc1 : 33.8 µM (inactive)
O=C(Cn1c2c(c3ccccc31)CCCC2)N1CCOCC1 : > 100 µM (inactive)

(Q) Give its GI50 value. Item: CCOC(=O)Cn1c(=O)c(C)cn(COCCO)c1=O
(A) > 100 µM (inactive)

(Q) Give its GI50 value. Item: CC(C)=C/C(CC(O)(C(F)(F)F)C(F)(F)F)=N\O
(A) > 100 µM (inactive)

(Q) Give its GI50 value. Item: Cn1c(=O)c2c3ccccc3n(C)c2n(C)c1=O
(A) > 100 µM (inactive)

(Q) Give its GI50 value. Item: COc1c(-c2ccc(O)c(O)c2)oc2c(O)c(O)cc(O)c2c1=O
(A) > 100 µM (inactive)

(Q) Give its GI50 value. Item: Cn1c2ccccc2c(=S)c2cc(NC(=O)CCCCC(=O)Nc3ccc4c(c3)c(=S)c3ccccc3n4C)ccc21
(A) > 100 µM (inactive)

====

// values below are reported GI50
Tested on: KM12
assayMethodText: NCI tumour cell line growth inhibition, 48 h
Active and inactive are the calls of the source. Cut-off read from the data, not from the text of the source: active = GI50 up to about 1.1 µM and inactive = higher.

Reference set (4 entries):
N#CS/C(C(Cl)=C(Cl)Cl)=C(/Cl)[N+](=O)[O-] : 9.64 µM (inactive)
CCCCN1CN2C(=O)C(C(=O)OCC)C(=O)c3sc4nc(SC)nc1c4c32 (stereo unspecified) : 16.8 µM (inactive)
c1cc2c(c(-c3c4ccccc4nc4ccccc34)c1)CC1(CC2)OCCO1 : > 100 µM (inactive)
O=P1(c2ccccc2)c2ccccc2-c2ccccc21 : > 100 µM (inactive)

(Q) Give its GI50 value. Item: CN(C)C(=S)/N=c1\ss/c(=N\C(=S)N(C)C)n1Cc1ccco1
(A) > 100 µM (inactive)

(Q) Give its GI50 value. Item: COc1ccc(/N=N/C(=NNC(=O)c2ccc(C)cc2)c2ccc(N(C)C)cc2)cc1
(A) 30.1 µM (inactive)

====

// values below are reported GI50
Tested on: NCI-H522
assayMethodText: NCI tumour cell line growth inhibition, 48 h
Calls of active or inactive are those of the source. Cut-off read from the data, not from the text of the source: active = GI50 up to about 1.1 µM and inactive = higher.

(Q) Param readout= GI50; system= NCI-H522; entry= CCOC(=O)C(C)c1nc2cc(N3CCOCC3)c(F)cc2[nH]c1=O (centres undefined) ; returns value.
(A) 53.1 µM (inactive)

====

Tested on: IGROV-1
assayMethodText: NCI tumour cell line growth inhibition, 48 h
Calls of active or inactive are those of the source. No stated cut-off is given here; in the data, active = GI50 up to about 1.1 µM and inactive = higher.
observationType: GI50

Reference set (4 entries):
CCCCCCCC(CC(=O)NC(CO)C(=O)NC(CO)CC(C)C)OC(=O)CC(CCCCCCC)OC(=O)CC(CCCCCCC)OC1OC(C)C(O)C(OC2OC(C)C(O)C(OC(C)=O)C2O)C1O (stereo unspecified) : 12.3 µM (inactive)
CC(C)=C/C(CC(O)(C(F)(F)F)C(F)(F)F)=N\O : > 100 µM (inactive)
O=C1CC(O)C=C1Nc1ccc(Cl)cc1 (stereo unspecified) : 43.1 µM (inactive)
Cc1ccc(S(=O)(=O)NC(=N)N(C)N=O)cc1 : > 100 µM (inactive)

(Q) Give its GI50 value. Item: N#CC(C#N)=c1ccc(=C2NCC3CCCN23)cc1 (stereo unspecified)
(A) > 100 µM (inactive)

(Q) Give its GI50 value. Item: CCCCN1CN2C(=O)C(C(=O)OCC)C(=O)c3sc4nc(SC)nc1c4c32 (stereo unspecified)
(A) 18.9 µM (inactive)

(Q) Give its GI50 value. Item: CCOC(=O)Cn1c(=O)c(C)cn(COCCO)c1=O
(A) > 100 µM (inactive)

(Q) Give its GI50 value. Item: COc1ccc2[nH]c(C(O)(Cc3cccnc3)Cc3cccnc3)cc2c1
(A) > 100 µM (inactive)

(Q) Give its GI50 value. Item: COc1cc(OC)c2c(O)c3c(cc2c1)CC(C)(C)CC3=O
(A) > 100 µM (inactive)

(Q) Give its GI50 value. Item: CCOC(=O)C1=C(C)N(NC(N)=O)C2(N)N(NC(N)=O)C(C)=C(C(=O)OCC)C12C#N (stereo unspecified)
(A) > 100 µM (inactive)

====

System: PC-3
assayMethodText: NCI tumour cell line growth inhibition, 48 h
Calls of active or inactive are those of the source. Rule as the data show it: active = GI50 up to about 1.1 µM and inactive = higher.
Please reply with one of these outcomes: active, inactive

Example results:
Cc1ccc2nc(Cl)c(/C=N/N3C(=O)/C(=C/Cc4ccco4)N=C3c3ccccc3)cc2c1 : inactive
CC1=NN(C(=O)CC(=O)Nc2ccccc2)C(=O)C1/N=N/c1ccc(C(=O)O)cc1 (configuration not stated) : inactive
CCN(CC)CCn1nc(N)c2nc3cc(Cl)ccc3nc21 : inactive

(Q) Check the results log: what was the call for COc1ccc(CC2OC3(CCCCC3)CC3CCCCN32)cc1 (configuration not stated) ?
(A) inactive

(Q) Check the results log: what was the call for O=C1Nc2cccc(Cl)c2/C1=C\c1c(Cl)nc2sccn12 ?
(A) inactive

(Q) Check the results log: what was the call for CCC/C(Cl)=N/OC(NC(=O)OCC)(C(F)(F)F)C(F)(F)F ?
(A) inactive

(Q) Check the results log: what was the call for N/N=C(\c1nc2ccc([N+](=O)[O-])cc2nc1O)C(O)c1ccc(Cl)c(Cl)c1 (configuration not stated) ?
(A) inactive

(Q) Check the results log: what was the call for C=C1C(=O)OC2/C=C(\CO)CC/C=C(\CO)CC(OC(=O)C(C)C)C12 (configuration not stated) ?
(A) inactive

====

Tested on: TK-10
assayMethodText: NCI tumour cell line growth inhibition, 48 h
Calls of active or inactive are those of the source. No stated cut-off is given here; in the data, active = GI50 up to about 1.1 µM and inactive = higher.
// values below are reported GI50

CCOC(=O)C1=C(C)N2CCCOC2(C)C(C(=O)OC)C1c1cccc([N+](=O)[O-])c1 (configuration not stated) : > 100 µM (inactive)
COc1ccc(COCCOCc2nc(C#N)c(N)o2)cc1 : > 100 µM (inactive)
C[N+](C)(C)CCCCCc1c2nc(c(CCCCC[N+](C)(C)C)c3ccc([nH]3)c(CCCCC[N+](C)(C)C)c3nc(c(CCCCC[N+](C)(C)C)c4ccc1[nH]4)C=C3)C=C2 : 11.3 µM (inactive)

(Q) Give its GI50 value. Item: CC(C)(O)C(O)COc1c2c(cc3oc(=O)ccc13)OCO2 (configuration not stated)
(A) > 100 µM (inactive)

(Q) Give its GI50 value. Item: N#CC(C#N)=c1ccc(=C2NCC3CCCN23)cc1 (configuration not stated)
(A) > 100 µM (inactive)

(Q) Give its GI50 value. Item: O=C1Cc2c([nH]c3ccccc23)C2(CC3CCCCN13)OCCO2 (configuration not stated)
(A) > 100 µM (inactive)

(Q) Give its GI50 value. Item: Cc1cc(OCC(=O)O)c(Cl)cc1Cl
(A) > 100 µM (inactive)

(Q) Give its GI50 value. Item: CC1(C)C(=NNC(=O)C[N+](C)(C)C)C(C)(C)C1=NNC(=O)C[N+](C)(C)C
(A) > 100 µM (inactive)

====

Test system: SK-MEL-28
assayMethodText: NCI tumour cell line growth inhibition, 48 h
Calls of active or inactive are those of the source. Cut-off read from the data, not from the text of the source: active = GI50 up to about 1.1 µM and inactive = higher.
observationType: GI50

Reference set (4 entries):
COC(=O)C1CCC(=O)N1C(c1cc(OC)c(OC)c(OC)c1)c1cc(OC)c(OC)c(OC)c1 (configuration not stated) : > 100 µM (inactive)
CCN(CC)CC(C(=O)Nc1c(C)cccc1C)/C(C)=N\NC(=O)c1ccncc1 (configuration not stated) : > 100 µM (inactive)
CN1CCN(C2CC(=O)c3c(Cl)sc(Cl)c32)CC1 (configuration not stated) : 7.57 µM (inactive)
N#CC1=C2Sc3ccccc3N2[C@H](c2ccccc2)[C@H]2COC(=O)[C@@H]12 : > 100 µM (inactive)

Field: next compound
(Q) Give its GI50 value. Item: C/C(=N\NC(=O)c1ccncc1)c1ccccc1F
(A) > 10 µM (inactive)
